# Measured Target: Fuc(a1-2)[Gal(a1-3)]Gal(b1-3)GlcNAc(b1-2)Man(a1-3)[Fuc(a1-2)[Gal(a1-3)]Gal(b1-3)GlcNAc(b1-2)Man(a1-6)]Man(b1-4)GlcNAc(b1-4)[Fuc(a1-6)]GlcNAc
# Method Description: glycan array binding signal (z-score within array); higher = stronger binding
# Reported Conditions: glycan notation: IUPAC condensed, linker removed
This excerpt belongs to a sample that is enriched for the strongest signals.
Measured Quantity: glycan array binding signal (z-score)

Please review the entries below; each comes with its answer.
>  <Binder>
KILRGVCKKIMRTFLRRISKDILTGKK [NK2 (Sus scrofa)]

>  <Measured Quantity>
glycan array binding signal (z-score)

>  <Value Reported>
0.527

$$$$
>  <Binder>
Si Bti9 1b-HA (Solanum lycopersicum) (protein) MFESRPRSVLSLGVFVILVYLSSVPLPVNSQCNRGCDLALASFYVWRGSNLTLISEMFSTSIADIVSYNNRDNIPNQDSVIAGTRINIPFRCDCLNDGEVLGHAFPYRVKSGDTYDLVARNYSDLTTAQWMMKFNSYPENNIPNTVNLSVVVNCSCGNSDVSKDFGLFVTYPVRAEDNLTSVASAANVSEDIIRRYNPAAVSILDIGQGIIYIPGRDRNGNFPPLPTSTDGLSGGAKAPLFFNPAFLYKVVELKLAGRSRTSGYPYDVPDYAGYPYDVPDYALEVLFQ

>  <Measured Quantity>
glycan array binding signal (z-score)

>  <Value Reported>
2.04

$$$$

Record summary for EPL1 (Trichoderma atroviride), A0PCX2 (protein) MQLSNLFKLALFTAAVSADTVSYDTGYDDASRSLTVVSCSDGTNGLITRYHWQTQGQIPRFPYIGGAQAVAGWNSPNCGTCWKLTYSGKTIYVLAIDHTAAGFNIGLDAMNALTNGNAVALGRVSATASQVAVSNCGL : reported glycan array binding signal (z-score) = 0.105

Record summary for Erv41-EDTA (Saccharomyces cerevisiae), Q04651 (protein) MKFLVNVALVFMVVYISYIYAAAPEHHHHHHDYDIPTTENLYFQGAMGYIDQQYVVDSQVRDTVQINMDIYVNTKCDWLQINVRDQTMDRKLVLEELQLEEMPFFIPYDTKVNDINEIITPELDEILGEAIPAEFREKLDTRSFFDESDPNKAHLPEFNGCHVFGSIPVNRVSGELQITAKSLGYVASRKAPLEELKFNHVINEFSFGDFYPYIDNPLDNTAQFNQDEPLTTYVYYTSVVPTLFKKLGAEVDTNQYSVNDYRYLYKDVAAKGDKMPGIFFKYNFEPLSIVVSDVRL : reported glycan array binding signal (z-score) = 0.605

Record summary for CPA (Cicer arietinum) (protein) MAFSYLNLVLVTLTTLFFLQTTKVKSQKSVSFHITNFTISRPSITLQGTAEFLPNVLLLNDIEHPVFVVGRALYSKPITLWNNKTGKVASFVTSFTFDVQDLKKTVPGHGLVFFLAPSGSEIPFSSDGGNLGVVDGKNAFNRFVGVEFDNFVNSWDPKYSHVGINVNSLISTKTVKWNRVSGELVKVSIVYDSVSTTLTVIVTYKNGQISILSQLVDLKAVLPDTVNIGFSASTTLVSPRQLHNIHSWSFTSTFET : reported glycan array binding signal (z-score) = -0.184

Record summary for MAL-II (Maackia amurensis), P93248 (protein) ATSNSKPTQVLLATFLTFFFLLLNNVNSSDELSFTINNFVPNEADLLFQGEASVSSTGVLQLTRVENGQPQQYSVGRALYAAPVRIWDNTTGSVASFSTSFTFVVKAPNPTITSDGLAFFLAPPDSQIPSGRVSKYLGLFNNSNSDSSNQIVAVEFDTYFGHSYDPWDPNYRHIGIDVNGIESIKTVQWDWINGGVAFATITYLAPNKTLIASLVYPSNQTSFIVAASVDLKEILPEWVRVGFSAATGYPTQVETHDVLSWSFTSTLEANSDAATENNVHIARYTA : reported glycan array binding signal (z-score) = 0.051
